subject-of-test: LC3A WT (UniProt Q9H492 1-121)
assay-protocol: ITC; peptide in the syringe (0.5 mM) titrated into 200 µl of the Atg8 homologue in the cell at a 10 times lower concentration; MicroCal iTC200, 25 °C, stirring at 1000 rpm; single-site binding model; N fixed to 1.0 when the fitting was not convergent due to weak interaction; errors are fitting errors
experimental-conditions: both partners purified
Could you please report measured pKd for the items listed next?
Entry type: numeric. Quantity: pKd, the -log10 of concentration in molar units.

For the binder NDFEMITKY (SEC62, human, residues 361-368 (lacks the helix C-terminal to the AIM/LIR); Tyr attached to the C terminus for quantification by absorbance at 280 nm; also called Sec62361-368 WT (Δhelix); source: synthetic peptide (BEX Co., Ltd.), SEC) [SEC62361-368 (Δhelix) peptide] , give its reported pKd.
4.26

For the binder GPHSSGNGNDFEMITKEELEQQTDY [SEC62355-376 WT peptide] , give its reported pKd.
6.04
